These measurements were taken from ChEMBL document CHEMBL1151941.

# experiment: Binding affinity to ganglioside GM3 by ELISA relative to wild type fd phage clone
parameter: fold change (FC)
Write the number on its own, no unit after it.

Exam item: Name the reported fold change (FC) value associated with the substance `H-LWRPVLFHSAVRALG-OH`
Marked response: 1.7

Exam item: Name the reported fold change (FC) value associated with the substance `H-LSWPLHAGRGFRWVS-OH`
Marked response: 0.9

Exam item: Name the reported fold change (FC) value associated with the substance `H-QQLVYNWWAVSSARR-OH`
Marked response: 1.1

Exam item: Name the reported fold change (FC) value associated with the substance `H-GWYSSRHYVRSLNGL-OH`
Marked response: 1.4
